- PROTOCOL_SUMMARY: in vitro
- CONDITION_DETAILS: ID50, MEAN, FLU-A experiments, mean
ENDPOINT: CC50 (µg/mL)

{"columns": ["COMPOUND_STRING", "ENDPOINT", "UNIT_TAG", "VALUE_MEASURED"],
 "data": [
  ["NC(=O)c1ncn([C@@H]2O[C@H](CO)[C@@H](O)[C@H]2O)n1", "CC50", "µg/mL", 750]
]}
